system: HL-60(TB) leukemia; assay: NCI-60 one-dose screen, 48 h; conditions: 10 µM unless noted
About 83,000 compounds went through this panel and 20% of them were active in at least one assay; those are over-represented in the sample as a whole. The source made the active and inactive calls. How the source made its calls: active means growth percent below 10; inactive means the rest.
Outcome field: choose from active, inactive

[[record]]
molecule = "O=C(Nc1cccc(-c2nc(-c3ccc(NC(=O)c4cccnc4)cc3Cl)no2)c1)Nc1ccc(NC(=O)C2CC2)c(C(F)(F)F)c1"
qualitative_label = "active"

[[record]]
molecule = "CNC(=O)c1cc(Oc2ccc3nc(NC(=O)c4ccc(CN5CCN(C)CC5)c(C(F)(F)F)c4)sc3c2)ccn1"
qualitative_label = "inactive"

[[record]]
molecule = "Cn1ccnc1C(=O)/C=C/c1ccc(CNC(=O)c2ccc(Cl)cc2)cc1"
qualitative_label = "active"


QUERY: What classification did CO/N=C1\CCc2c(sc(NC(=O)c3cccc(C(F)(F)F)c3)c2C(N)=O)C1 end up with in this test?
RESULT: inactive

* * *

Test system: NCI-H322M lung
Experiment: NCI-60 one-dose screen, 48 h
Settings: 10 µM
Protocol: Growth inhibition of the NCI-H322M human Non-Small Cell Lung tumor cell line is measured as a screen for anti-cancer activity. Cells are grown in 96 well plates and exposed to the test compound for 48 hours. Compounds are tested at a single concentration, which is 10^-5 M for most compounds. The reported endpoint is percent growth (GI% or GIPRCNT), where numbers from 0 - 100% represent growth inhibition, and numbers from -100% - 0 represent cell death. […]
This is part of a sample that, as a whole, favours compounds with a hit. Of some 83,000 tested, about 20% had one in any assay. The source made the active and inactive calls. The calls were made as follows: active = growth percent below 10; inactive = the rest.
Outcome field: choose from YES for active, NO for inactive

[[record]]
entry_smiles = "C/C=C\\C(=O)O[C@@H]1CC2O[C@@H]3C=C(C)C(=O)C[C@]3(C)[C@]1(C)[C@]21CO1"
qualitative_label = "YES"


QUERY: What classification did CC(C)(O)/C=C/C(=O)[C@](C)(O)[C@H]1[C@H](O)C[C@@]2(C)[C@H]3CC=C4[C@@H](C[C@H](O)C(=O)C4(C)C)[C@]3(C)C(=O)C[C@]12C end up with in this test?
RESULT: NO

QUERY: What classification did COc1cccc2c1cc([N+](=O)[O-])c1c(C(=O)O)cc3c(c12)OCO3 end up with in this test?
RESULT: NO

* * *

System: HCT-116 colon
Experiment: NCI-60 one-dose screen, 48 h (100 = growth as untreated, 0 = no growth, -100 = all killed)
Conditions: 10 µM
Method: Growth inhibition of the HCT-116 human tumor cell line is measured as a screen for anti-cancer activity. Cells are grown in 96 well plates and exposed to the test compound for 48 hours. Compounds are tested at a single concentration, which is 10^-5 M for most compounds. The reported endpoint is percent growth (GI% or GIPRCNT), where numbers from 0 - 100% represent growth inhibition, and numbers from -100% - 0 represent cell death. For example, a value of 40 represents 60% growth inhibition. […]
Compounds without any hit were thinned out: in the full panel of roughly 83,000, 20% have a hit.
MEASUREMENT LABEL: growth (%)
Express the result in % but write the number alone.

QUERY: What measured growth goes with CCC(C)[C@H]1C(=O)O[C@H](C(C)C)C(=O)N(C)[C@@H](C(C)C)C(=O)O[C@H](C(C)C)C(=O)N(C)[C@@H](C(C)C)C(=O)O[C@H](C(C)C)C(=O)N1C (stereo not given in full) ?
RESULT: 12.2
